Hey, just so you know, these numbers are from patent US20230134571A1.

Study target: HIV Env of isolate WITO4160.33 (clade B) (HIV)
Procedure summary: cell-based or functional assay
Experimental readout: IC50 (µg/ml) with constrains (µg/mL)
Please give a number only; it is taken to be in µg/mL.

IC50 (µg/ml) with constrains reported for this binder ePGDM5 (antibody, V domains shown) VH: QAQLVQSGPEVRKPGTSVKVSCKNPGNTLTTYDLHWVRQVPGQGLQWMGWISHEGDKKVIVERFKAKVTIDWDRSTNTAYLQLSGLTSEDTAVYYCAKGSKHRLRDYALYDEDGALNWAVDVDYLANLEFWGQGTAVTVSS VL: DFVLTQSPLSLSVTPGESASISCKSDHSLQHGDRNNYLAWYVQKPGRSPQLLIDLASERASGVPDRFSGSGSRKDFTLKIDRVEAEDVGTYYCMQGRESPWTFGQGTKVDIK : 0.004
